SYSTEM TESTED: Solute carrier family 22 member 6 (Rattus norvegicus, UniProt O35956)
Sequence (O35956 whole entry): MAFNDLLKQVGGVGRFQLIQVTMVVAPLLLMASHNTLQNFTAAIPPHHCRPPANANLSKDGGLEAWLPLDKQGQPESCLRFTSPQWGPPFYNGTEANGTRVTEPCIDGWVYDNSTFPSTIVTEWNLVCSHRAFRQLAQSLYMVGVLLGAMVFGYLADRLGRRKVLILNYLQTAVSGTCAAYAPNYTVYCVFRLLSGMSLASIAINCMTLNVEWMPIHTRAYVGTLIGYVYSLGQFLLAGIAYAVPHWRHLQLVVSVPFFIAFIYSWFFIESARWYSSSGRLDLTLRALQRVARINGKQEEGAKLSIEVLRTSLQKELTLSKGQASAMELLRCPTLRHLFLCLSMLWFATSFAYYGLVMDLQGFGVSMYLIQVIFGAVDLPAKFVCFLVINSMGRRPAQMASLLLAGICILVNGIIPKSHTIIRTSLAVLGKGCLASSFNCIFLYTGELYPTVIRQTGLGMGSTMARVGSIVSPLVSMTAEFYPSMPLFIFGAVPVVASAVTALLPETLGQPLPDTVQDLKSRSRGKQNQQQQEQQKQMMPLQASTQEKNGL
PROTOCOL SUMMARY: TP_TRANSPORTER: inhibition of PAH uptake in Xenopus laevis oocytes
OBSERVATION TYPE: Ki (µM)
One number for each entry, in µM.

What does the data say about its Ki? Entry: CC(=O)N[C@@H](CS)C(=O)O [ACETYLCYSTEINE] 2000
